biological target: T1, Gly-Asp-Asp-Asp-Asp-Lys-β-naphthylamide
T1 chain: GDDDDK
readout.type: Km (µM)

[[record]]
protein = "Medaka EP-1 serine protease domain mutant T105E (protein) VVGGVNAEKGAWPWMVSLHWRGRHGCGASLIGRDWLLTAAHCVYGKNTHLQYWSAVLGLHAQSSMNSQEVQIRQVDRIIINKNYNRREKEADIAMMHLQQPVNFTEWVLPVCLASEDQHFPAGRRCFIAGWGRDAEGGSLPDILQEAEVPLVDQDECQRLLPEYTFTSSMLCAGYPEGGVDSCQGDSGGPLMCLEDARWTLIGVTSFGVGCGRPERPGAYARVSAFTSWIAETRRSSFSDLD"
readout_type = "Km"
reported_value = 400

[[record]]
protein = "Medaka EP-1 serine protease domain mutant P193E (protein) VVGGVNAEKGAWPWMVSLHWRGRHGCGASLIGRDWLLTAAHCVYGKNTHLQYWSAVLGLHAQSSMNSQEVQIRQVDRIIINKNYNRRTKEADIAMMHLQQPVNFTEWVLPVCLASEDQHFPAGRRCFIAGWGRDAEGGSLPDILQEAEVPLVDQDECQRLLPEYTFTSSMLCAGYEEGGVDSCQGDSGGPLMCLEDARWTLIGVTSFGVGCGRPERPGAYARVSAFTSWIAETRRSSFSDLD"
readout_type = "Km"
reported_value = 400

[[record]]
protein = "Medaka EP-1 serine protease domain mutant K63R (protein) VVGGVNAEKGAWPWMVSLHWRGRHGCGASLIGRDWLLTAAHCVYGRNTHLQYWSAVLGLHAQSSMNSQEVQIRQVDRIIINKNYNRRTKEADIAMMHLQQPVNFTEWVLPVCLASEDQHFPAGRRCFIAGWGRDAEGGSLPDILQEAEVPLVDQDECQRLLPEYTFTSSMLCAGYPEGGVDSCQGDSGGPLMCLEDARWTLIGVTSFGVGCGRPERPGAYARVSAFTSWIAETRRSSFSDLD"
readout_type = "Km"
reported_value = 200

[[record]]
protein = "porcine EP serine protease domain (Ile800 to His1034) (protein) IVGGNDSREGAWPWVVALYYNGQLLCGASLVSRDWLVSAAHCVYGRNLEPSKWKAILGLHMTSNLTSPQIVTRLIDEIVINPHYNRRRKDSDIAMMHLEFKVNYTDYIQPICLPEENQVFPPGRICSIAGWGKVIYQGSPADILQEADVPLLSNEKCQQQMPEYNITENMMCAGYEEGGIDSCQGDSGGPLMCLENNRWLLAGVTSFGYQCALPNRPGVYARVPKFTEWIQSFLH"
readout_type = "Km"
reported_value = 400

